Listed next: entries and their corresponding protein stability index.
B1: FBF1 (parent)
chain: FGDSPKAEKRQIGDQEGPRPARST

- Variants of: B1
- method description: protein stability index of a GFP-peptide fusion (GPS, HEK-293T) (PSI 1-6); higher = more stable;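 also: lentivirally expressed fusions sorted by FACS into six bins by GFP to DsRed ratio, PSI derived from sequencing read proportions per bin multiplied by bin number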
- test parameters: c terminus: a fixed tail appended
Output: the number by itself.

Given the variant `R22Q` , what is its reported protein stability index?
5.16

Given the variant `T24A` , what is its reported protein stability index?
4.91

Given the variant `G13F` , what is its reported protein stability index?
4.71
